Source listed as ChEMBL document CHEMBL4196087.

- Test system: HOP-92
- test-method-notes: Growth inhibition of human HOP92 cells at 10^-5 M incubated for 48 hrs by sulforhodamine B assay relative to control
- Format: functional
- settings: HOP-92, 48 h, read-out: GI
// inhibition of growth at 10 µM lookup, one value per entry

Consider the following illustrative entries.
COc1ccc(/C=N/NC(=O)CN2CCN(c3cc4c(cc3F)c(=O)c(C(=O)O)cn4C3CC3)CC2)cc1 | < 20%
O=C(CSc1nnc(CN2CCN(c3cc4c(cc3F)c(=O)c(C(=O)O)cn4C3CC3)CC2)o1)c1ccccc1 | < 20%
O=C(CN1CCN(c2cc3c(cc2F)c(=O)c(C(=O)O)cn3C2CC2)CC1)N/N=C/c1ccccc1C(F)(F)F | 35.9%
O=C(O)c1cn(C2CC2)c2cc(N3CCN(Cc4nnc(S)o4)CC3)c(F)cc2c1=O | < 20%
O=C(CSc1nnc(CN2CCN(c3cc4c(cc3F)c(=O)c(C(=O)O)cn4C3CC3)CC2)o1)c1ccc(Cl)cc1 | 27.2%

Reported inhibition of growth at 10 µM (HOP-92) for entry CSc1nnc(CN2CCN(c3cc4c(cc3F)c(=O)c(C(=O)O)cn4C3CC3)CC2)o1 is < 20%

Item: O=C(CN1CCN(c2cc3c(cc2F)c(=O)c(C(=O)O)cn3C2CC2)CC1)N/N=C/c1cccs1 | System: HOP-92 | inhibition of growth at 10 µM: < 20%

Recorded inhibition of growth at 10 µM for O=C(CN1CCN(c2cc3c(cc2F)c(=O)c(C(=O)O)cn3C2CC2)CC1)N/N=C/c1ccc(Cl)cc1 on HOP-92 was < 20%

Item: NNC(=O)CN1CCN(c2cc3c(cc2F)c(=O)c(C(=O)O)cn3C2CC2)CC1 | System: HOP-92 | inhibition of growth at 10 µM: < 20%

// assay HOP-92, entry O=C(CN1CCN(c2cc3c(cc2F)c(=O)c(C(=O)O)cn3C2CC2)CC1)N/N=C/c1c[nH]c2ccccc12 , inhibition of growth at 10 µM value = < 20%

The value of inhibition of growth at 10 µM recorded for O=C(CN1CCN(c2cc3c(cc2F)c(=O)c(C(=O)O)cn3C2CC2)CC1)N/N=C/c1cc2ccccc2[nH]1 when tested on HOP-92 reads 29.8%
